- Target Entity: miniplasmin (Homo sapiens, UniProt P00747)
- Construct: 38kDa (Kringle 5 + L chain); the 12kDa protein of human miniplasmin includes a kringle 5 that begins with V^441; host or cells: no expression host
- Sequence (P00747 481-560): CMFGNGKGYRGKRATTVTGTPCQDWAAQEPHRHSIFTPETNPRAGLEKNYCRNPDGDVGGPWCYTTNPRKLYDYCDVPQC
- Sequence (P00747 581-810): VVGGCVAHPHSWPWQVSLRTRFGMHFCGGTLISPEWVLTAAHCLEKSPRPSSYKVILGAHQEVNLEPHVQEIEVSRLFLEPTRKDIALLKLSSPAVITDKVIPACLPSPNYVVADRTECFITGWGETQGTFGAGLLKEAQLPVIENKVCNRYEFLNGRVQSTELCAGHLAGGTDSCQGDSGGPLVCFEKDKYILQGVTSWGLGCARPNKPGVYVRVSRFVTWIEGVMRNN
- Experimental Protocol: Substrate specificity of human miniplasmin (cleavage of fluorescent MCA synthetic substrates)
- Type: biochemical
- Assay Conditions: cleavage of the named substrate by human miniplasmin
- Procedure: 2. […] Miniplasmin cut the bond after Arg. Nor did it toward Bz-Arg-MCA, a synthetic substrate for cathepsin B, which is one of lysosomal enzymes. The activity of miniplasmin was quantified by defining the enzyme activity that can degrade […] of the synthetic substrate Boc-Glu-Ala-Arg-MCA in 1 minute as 1 unit.
*1 amine or outer side, *2 acyl side, *3 side chain or, on linkers, in order; H or OH if unused. Where a SMILES comes first, the peptide text is derived from it. The star is where a group is joined. AMC = Cc1cc(=O)oc2cc(N*)ccc12; Suc = O=C(CCC(=O)[*:2])[*:1]; Boc = CC(C)(C)OC(=O)*
Readout Label: Activity (mU/ml)
Response body: numeric value in mU/ml, unit text excluded.

Give the reported Activity (mU/ml) for this molecule. Cc1cc(=O)oc2cc(NC(=O)[C@H](Cc3ccc(O)cc3)NC(=O)[C@@H](NC(=O)[C@H](CC(C)C)NC(=O)[C@H](CC(C)C)NC(=O)CCC(=O)O)C(C)C)ccc12 [Suc-Leu-Leu-Val-Tyr-MCA] (Suc-LLVY-{AMC})
0.0

Tell me its Activity (mU/ml) given Cc1cc(=O)oc2cc(NC(=O)[C@H](CCCCN)NC(=O)[C@H](CC(C)C)NC(=O)[C@@H](NC(=O)OC(C)(C)C)C(C)C)ccc12 [Boc-Val-Leu-Lys-MCA] (Boc-Val-Leu-Lys-{AMC}) as the entry.
17.7

Name the recorded Activity (mU/ml) of the molecule listed here: Cc1cc(=O)oc2cc(NC(=O)[C@H](CCCNC(=N)N)NC(=O)[C@@H]3CCCN3C(=O)[C@@H](NC(=O)OC(C)(C)C)C(C)C)ccc12 [Boc-Val-Pro-Arg-MCA] (Boc-Val-Pro-Arg-{AMC})
5.0

Fill in Activity (mU/ml) for record Cc1cc(=O)oc2cc(NC(=O)[C@H](CCCNC(=N)N)NC(=O)[C@H](CCCCN)NC(=O)CNC(=O)OC(C)(C)C)ccc12 [Boc-Gly-Lys-Arg-MCA] (Boc-Gly-Lys-Arg-{AMC})
3.1

Given the molecule Cc1cc(=O)oc2cc(NC(=O)[C@H](CCCNC(=N)N)NC(=O)[C@H](Cc3ccccc3)NC(=O)[C@@H]3CCCN3)ccc12 [Pro-Phe-Arg-MCA] (H-Pro-Phe-Arg-{AMC}) , write its reported Activity (mU/ml).
5.0

Just for reference, patent EP1215499A1 is where these values come from.
